Could you please report measured koff for the items listed next?
Target: T1, Human FRα ECD-Avi-His (human, biotin on the Avi-tag (BirA) in the HTRF assays)
T1 construct: also called biotinylated human FRα; folate receptor alpha
T1 sequence (chain, as listed by the source limits assumed): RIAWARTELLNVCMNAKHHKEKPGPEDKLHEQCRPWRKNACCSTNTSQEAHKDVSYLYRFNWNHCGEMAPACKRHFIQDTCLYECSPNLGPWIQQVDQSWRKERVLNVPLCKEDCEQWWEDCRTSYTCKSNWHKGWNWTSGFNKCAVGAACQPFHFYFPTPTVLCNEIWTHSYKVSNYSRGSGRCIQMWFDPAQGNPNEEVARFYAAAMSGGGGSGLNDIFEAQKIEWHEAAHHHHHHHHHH
Experiment: SPR (Biacore T200, 25°C); antibody captured on Protein A, FRα ECD as analyte
Numbers only, in s⁻¹.

Illustrative cases are given below, each with its answer.
>>> reported_measurement("AB1370095 hIgG1 (antibody, V domains shown) VH: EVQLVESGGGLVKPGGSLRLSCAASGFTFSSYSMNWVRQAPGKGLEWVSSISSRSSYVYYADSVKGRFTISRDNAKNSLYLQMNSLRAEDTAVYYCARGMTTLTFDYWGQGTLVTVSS VL: DIQMTQSPSSLSASVGDRVTITCRASQGISSFLAWFQQKPGKAPKSLIYAASSLQSGVPSKFSGSGSGTDFTLTISSLQPEDFATYYCQQYNSYPLTFGGGTKVEIKR")
0.00129
>>> reported_measurement("AB1370035 hIgG1 (antibody, V domains shown) VH: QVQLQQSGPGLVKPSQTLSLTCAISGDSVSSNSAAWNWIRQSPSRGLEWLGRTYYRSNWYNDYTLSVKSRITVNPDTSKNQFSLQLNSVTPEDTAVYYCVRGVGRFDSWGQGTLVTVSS VL: DIQMTQSPSTLSASVGDRVIITCRASQSISSWLAWYQQKPGKAPKLLIYKASSLESGVPSRFSGSGSGTEFTLTITSLQPDDFASYYCQEYKTYSIFTFGPGTKVDIKR")
0.000527
>>> reported_measurement("AB1370026 hIgG1 (antibody, V domains shown) VH: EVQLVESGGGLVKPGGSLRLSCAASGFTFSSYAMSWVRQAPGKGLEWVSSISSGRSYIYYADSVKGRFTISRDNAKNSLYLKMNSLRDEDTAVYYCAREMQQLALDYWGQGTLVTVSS VL: DIQMTQSPSSLSASVGDRVTITCRASQGISNFLAWFQQAPGKAPKSLIYAASSLQSGVPSKFSGSGSGTDFTLTISSLQPEDFATYYCQQYNSYPFTFGQGTKLEIKR")
0.000354

# input binder: AB1370083 hIgG1 (antibody, V domains shown) VH: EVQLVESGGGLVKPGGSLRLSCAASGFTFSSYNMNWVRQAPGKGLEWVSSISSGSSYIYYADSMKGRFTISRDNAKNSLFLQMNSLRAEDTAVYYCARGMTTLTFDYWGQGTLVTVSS VL: DIQMTQSPSSLSASVGDRVTITCRASQGISTFLAWFQQKPGKAPKSLIYAASSLQSGVPSKFSGSGSETDFTLTISSLQPEDFATYYCQQYISYPLTFGGGTKVEIKR ; wanted: its koff
0.000135

The reported measurements were obtained from patent US20230295293A1.
